- assay.comment: Saturation solubility experiments in water
- Type: physicochemical
- measurement.parameters: 37°C, 30 min ultrasonic treatment then stirred 24 hours
observation.type: solubility at 24 h (µg/mL)
Answers are plain numbers, in µg/mL.

Lab note: measured solubility at 24 h of CC(C)C(=O)OCC(=O)C12OC(C3CCCCC3)OC1CC1C3CCC4=CC(=O)C=CC4(C)C3C(O)CC12C (stereo not shown) [crystalline ciclesonide, reference compound] was 0.091

---

- assay.comment: Dissolution experiments in water (dissolution kinetics)
- Type: physicochemical
- measurement.parameters: 37°C, after 1 hour
observation.type: solubility at 1 h

Lab note: measured solubility at 1 h of CC(C)C(=O)OCC(=O)C12OC(C3CCCCC3)OC1CC1C3CCC4=CC(=O)C=CC4(C)C3C(O)CC12C (stereo not shown) [crystalline ciclesonide, reference compound] was ~0.05 µg/mL
